Each entry below carries its reported koff.
Target: T1, PACAP38 (human, not fully specified)
T1 construct: The background says natural PACAP is alpha-amidated
T1 peptide: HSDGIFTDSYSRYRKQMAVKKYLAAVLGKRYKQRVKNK
Test: SPR (Biacore), 37 C, antibody captured via anti-human Fc, peptide analyte
Your answer should be a plain number; it is taken to be in s⁻¹.

[
  {
    "binder": "605C (antibody, V domains shown) VH: EVQLVQSGAEVKKPGSSVKVSCKASGGTFSDSYMHWVRQAPGQGLEWMGLIYPIFADTRYAQKFQGRVTITADESTSTAYMELSSLRSEDTAVYYCAIDQDGSFAYWGQGTLVTVSS VL: DIVMTQSPDSLAVSLGERATINCKSSQSLLDADGKTYLNWLQQKPGQPPKRLIYWASTRESGVPDRFSGSGSGTDFTLTISSLQAEDVAVYYCWQGTWFDLTFGGGTKVEIK",
    "unit.of.measurement": "s⁻¹",
    "koff": 0.000566
  },
  {
    "binder": "890C (antibody, human IgG2, kappa, V domains shown, Full chains as named '890C heavy chain' / '890C light chain' (IgG2DASS, kappa); also called anti-PACAP antibody 890C) VH: EVQLVQSGAEVKKPGSSVKVSCKASGGTFSDVYMHWVRQAPGQGLEWMGLIYPIFADTRYAQKFQGRVTITADESTSTAYMELSSLRSEDTAVYYCAIDQDGSFAYWGQGTLVTVSS VL: DIVMTQSPDSLAVSLGERATINCKSSQSLLDADGKTYLNWLQQKPGQPPKRLIYWASTRESGVPDRFSGSGSGTDFTLTISSLQAEDVAVYYCWQGTWFDLTFGGGTKVEIKR",
    "unit.of.measurement": "s⁻¹",
    "koff": 0.000671
  }
]

// below: koff requested for another binder
Consider the binder shown here: 519C (antibody, V domains shown, LC S(27E), G29, L50, V51, K53T, L54R, D55E, H93W, P95D) VH: EVQLVQSGAEVKKPGSSVKVSCKASGGTFSDLYMHWVRQAPGQGLEWMGLIYPIFADTRYAQKFQGRVTITADESTSTAYMELSSLRSEDTAVYYCAIDQDGSFAYWGQGTLVTVSS VL: DIVMTQSPDSLAVSLGERATINCKSSQSLLDSDGKTYLNWLQQKPGQPPKRLIYLVSTRESGVPDRFSGSGSGTDFTLTISSLQAEDVAVYYCWQGTWFDLTFGGGTKVEIK What is its recorded koff?
0.000483
